Experimental Details: Henry solubility constant Hcp at 298.15 K (mol/(m3 Pa))
Particulars: reference: Bamford et al. (2002)

{"Mol Smiles": "Clc1ccc(-c2cccc(Cl)c2)cc1", "Henry solubility constant Hcp": 0.049}
{"Mol Smiles": "Clc1ccc(-c2c(Cl)c(Cl)cc(Cl)c2Cl)c(Cl)c1Cl", "Henry solubility constant Hcp": 0.021}
{"Mol Smiles": "Clc1cc(Cl)c(Cl)c(-c2cccc(Cl)c2Cl)c1", "Henry solubility constant Hcp": 0.023}
{"Mol Smiles": "Clc1ccc(-c2cc(Cl)ccc2Cl)c(Cl)c1", "Henry solubility constant Hcp": 0.027}
{"Mol Smiles": "Clc1ccc(-c2cc(Cl)c(Cl)cc2Cl)c(Cl)c1", "Henry solubility constant Hcp": 0.021}
{"Mol Smiles": "Clc1ccc(-c2c(Cl)cc(Cl)c(Cl)c2Cl)cc1Cl", "Henry solubility constant Hcp": 0.021}
{"Mol Smiles": "Clc1ccccc1-c1ccccc1Cl", "Henry solubility constant Hcp": 0.046}
{"Mol Smiles": "Clc1cccc(-c2ccccc2)c1Cl", "Henry solubility constant Hcp": 0.043}

###

Experimental Details: Henry solubility constant Hcp at 298.15 K (mol/(m3 Pa))
Particulars: reference: Bamford et al. (2002)
Here the recorded Henry solubility constant Hcp is given for each entry.
Observation Type: Henry solubility constant Hcp

{"Mol Smiles": "Clc1cc(Cl)c(-c2ccccc2Cl)cc1Cl", "Readout Value": 0.027}
{"Mol Smiles": "Clc1ccccc1-c1cccc(Cl)c1Cl", "Readout Value": 0.042}
{"Mol Smiles": "Clc1ccc(-c2cc(Cl)ccc2Cl)cc1", "Readout Value": 0.034}
{"Mol Smiles": "Clc1ccc(-c2cccc(Cl)c2Cl)cc1Cl", "Readout Value": 0.038}

###

Here the recorded Henry solubility constant Hcp is given for each entry.
Experimental Details: Henry solubility constant Hcp at 298.15 K (mol/(m3 Pa))
Particulars: reference: Bamford et al. (2002)

{"Mol Smiles": "Clc1cc(Cl)c(-c2c(Cl)ccc(Cl)c2Cl)cc1Cl", "Henry solubility constant Hcp": 0.015}
{"Mol Smiles": "Clc1ccc(-c2ccccc2)c(Cl)c1", "Henry solubility constant Hcp": 0.037}
{"Mol Smiles": "Clc1ccc(-c2c(Cl)cccc2Cl)c(Cl)c1Cl", "Henry solubility constant Hcp": 0.022}
{"Mol Smiles": "Clc1cccc(-c2ccc(Cl)cc2Cl)c1", "Henry solubility constant Hcp": 0.033}
{"Mol Smiles": "Clc1ccccc1-c1c(Cl)cccc1Cl", "Henry solubility constant Hcp": 0.033}
{"Mol Smiles": "Clc1cccc(-c2c(Cl)cccc2Cl)c1Cl", "Henry solubility constant Hcp": 0.03}
{"Mol Smiles": "Clc1cc(-c2c(Cl)ccc(Cl)c2Cl)c(Cl)c(Cl)c1Cl", "Henry solubility constant Hcp": 0.022}
{"Mol Smiles": "Clc1cc(-c2ccc(Cl)c(Cl)c2Cl)cc(Cl)c1Cl", "Henry solubility constant Hcp": 0.034}

###

Experimental Details: Henry solubility constant Hcp at 298.15 K (mol/(m3 Pa))
Particulars: reference: Bamford et al. (2002)
Where Henry solubility constant Hcp equals or exceeds 0.03, the correct label is criterion met; where it does not, the label is criterion not met.

{"Compound": "Clc1ccc(-c2c(Cl)ccc(Cl)c2Cl)c(Cl)c1 [2,2',3,4',6-pentachlorobiphenyl]", "Answer Label": "criterion not met"}
{"Compound": "Clc1cc(Cl)c(Cl)c(-c2c(Cl)ccc(Cl)c2Cl)c1 [2,2',3,3',5,6'-hexachlorobiphenyl]", "Answer Label": "criterion not met"}
{"Compound": "Clc1cc(Cl)c(-c2cc(Cl)c(Cl)c(Cl)c2Cl)c(Cl)c1 [2,2',3,4,4',5,6'-heptachlorobiphenyl]", "Answer Label": "criterion not met"}
{"Compound": "Clc1cc(Cl)c(-c2cccc(Cl)c2Cl)cc1Cl [2,2',3,4',5'-pentachlorobiphenyl]", "Answer Label": "criterion not met"}
{"Compound": "Clc1ccc(-c2ccccc2Cl)c(Cl)c1 [2,2',4-trichlorobiphenyl]", "Answer Label": "criterion met"}
{"Compound": "Clc1ccc(-c2ccc(Cl)c(Cl)c2Cl)c(Cl)c1 [2,2',3,4,4'-pentachlorobiphenyl]", "Answer Label": "criterion not met"}
{"Compound": "Clc1ccc(Cl)c(-c2cc(Cl)c(Cl)c(Cl)c2Cl)c1 [2,2',3,4,5,5'-hexachlorobiphenyl]", "Answer Label": "criterion not met"}
{"Compound": "Clc1cc(Cl)c(-c2ccc(Cl)c(Cl)c2)c(Cl)c1 [2,3',4,4',6-pentachlorobiphenyl]", "Answer Label": "criterion not met"}
{"Compound": "Clc1ccc(-c2c(Cl)ccc(Cl)c2Cl)cc1 [2,3,4',6-tetrachlorobiphenyl]", "Answer Label": "criterion not met"}
{"Compound": "Clc1ccc(-c2cc(Cl)c(Cl)c(Cl)c2Cl)c(Cl)c1 [2,2',3,4,4',5-hexachlorobiphenyl]", "Answer Label": "criterion met"}
{"Compound": "Clc1ccc(Cl)c(-c2ccccc2)c1Cl [2,3,6-trichlorobiphenyl]", "Answer Label": "criterion met"}
{"Compound": "Clc1cccc(-c2ccccc2Cl)c1 [2,3'-dichlorobiphenyl]", "Answer Label": "criterion met"}
{"Compound": "Clc1ccc(Cl)c(-c2c(Cl)ccc(Cl)c2Cl)c1 [2,2',3,5',6-pentachlorobiphenyl]", "Answer Label": "criterion not met"}
{"Compound": "Clc1ccc(-c2cccc(Cl)c2Cl)c(Cl)c1 [2,2',3,4'-tetrachlorobiphenyl]", "Answer Label": "criterion not met"}
{"Compound": "Clc1cccc(-c2ccc(Cl)c(Cl)c2Cl)c1Cl [2,2',3,3',4-pentachlorobiphenyl]", "Answer Label": "criterion not met"}
{"Compound": "Clc1ccc(-c2cc(Cl)cc(Cl)c2Cl)cc1 [2,3,4',5-tetrachlorobiphenyl]", "Answer Label": "criterion not met"}
{"Compound": "Clc1cccc(-c2cc(Cl)ccc2Cl)c1 [2,3',5-trichlorobiphenyl]", "Answer Label": "criterion met"}
{"Compound": "Clc1cc(-c2c(Cl)c(Cl)cc(Cl)c2Cl)cc(Cl)c1Cl [2,3,3',4',5,5',6-heptachlorobiphenyl]", "Answer Label": "criterion met"}
{"Compound": "Clc1cc(Cl)c(-c2c(Cl)cc(Cl)c(Cl)c2Cl)cc1Cl [2,2',3,4,4',5',6-heptachlorobiphenyl]", "Answer Label": "criterion not met"}
{"Compound": "Clc1cccc(-c2cccc(Cl)c2Cl)c1Cl [2,2',3,3'-tetrachlorobiphenyl]", "Answer Label": "criterion met"}
{"Compound": "Clc1ccc(Cl)c(-c2ccc(Cl)c(Cl)c2)c1 [2,3',4',5-tetrachlorobiphenyl]", "Answer Label": "criterion met"}
{"Compound": "Clc1ccc(Cl)c(-c2c(Cl)ccc(Cl)c2Cl)c1Cl [2,2',3,3',6,6'-hexachlorobiphenyl]", "Answer Label": "criterion not met"}
{"Compound": "Clc1cc(-c2cc(Cl)c(Cl)c(Cl)c2)cc(Cl)c1Cl [3,3',4,4',5,5'-hexachlorobiphenyl]", "Answer Label": "criterion met"}
{"Compound": "Clc1cc(Cl)c(Cl)c(-c2cc(Cl)c(Cl)cc2Cl)c1 [2,2',3,4',5,5'-hexachlorobiphenyl]", "Answer Label": "criterion not met"}
{"Compound": "Clc1cc(Cl)c(Cl)c(-c2ccc(Cl)c(Cl)c2)c1 [2,3,3',4',5-pentachlorobiphenyl]", "Answer Label": "criterion met"}
{"Compound": "Clc1ccc(-c2cc(Cl)c(Cl)c(Cl)c2)cc1 [3,4,4',5-tetrachlorobiphenyl]", "Answer Label": "criterion met"}
{"Compound": "Clc1cc(Cl)c(-c2cc(Cl)c(Cl)c(Cl)c2)cc1Cl [2,3',4,4',5,5'-hexachlorobiphenyl]", "Answer Label": "criterion not met"}
{"Compound": "Clc1ccc(-c2c(Cl)ccc(Cl)c2Cl)cc1Cl [2,3,3',4',6-pentachlorobiphenyl]", "Answer Label": "criterion not met"}
{"Compound": "Clc1ccc(-c2cc(Cl)c(Cl)c(Cl)c2Cl)cc1Cl [2,3,3',4,4',5-hexachlorobiphenyl]", "Answer Label": "criterion not met"}
{"Compound": "Clc1ccc(-c2ccccc2Cl)cc1Cl [2,3',4'-trichlorobiphenyl]", "Answer Label": "criterion met"}
{"Compound": "Clc1cc(-c2cc(Cl)c(Cl)c(Cl)c2Cl)c(Cl)c(Cl)c1Cl [2,2',3,3',4,4',5,5'-octachlorobiphenyl]", "Answer Label": "criterion met"}

Where do the numbers come from? From Sander's compilation of Henry's law constants (doi:10.1021/es020599y).
